- Protocol Notes: qHTS assay to identify small molecule agonists of the estrogen receptor alpha (ER-alpha) signaling pathway in the presence of an antagonist - cell viability counter screen (AID 1259386);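 also: cells exposed to compounds for 22 h at 37 °C before the viability read; nearly all actives have a fitted effect of over 30% in size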
- Test Conditions: VM7Luc4E2 viability, CellTiter-Fluor fluorescence, 22 h; series mostly up to 92.4 µM
Inconclusive results are not listed. Active and inactive are the calls of the source. Calls follow the shape of the dose curve; as a rule, active = well fitted cell-killing curve with a large enough effect in the repeat runs; inconclusive = weak or mixed curves, or effect the other way; inactive = no such curve, though single readings can be large or run the other way.
Labels: yes for active, no for inactive

{"Compound": "CC[C@H](C)[C@H]1O[C@]2(C=C[C@@H]1C)C[C@@H]1C[C@@H](C/C=C(\\C)[C@@H](O[C@H]3C[C@H](OC)[C@@H](O[C@H]4C[C@H](OC)[C@@H](NC)[C@H](C)O4)[C@H](C)O3)[C@@H](C)/C=C/C=C3\\CO[C@@H]4[C@H](O)C(C)=C[C@@H](C(=O)O1)[C@]34O)O2", "Assigned Label": "yes"}
{"Compound": "COc1c2c(cc3c1OCO3)CCN(C)C2", "Assigned Label": "no"}
{"Compound": "O=NN(CCO)CCO", "Assigned Label": "no"}
{"Compound": "CCNc1nc(NC(C)C(C)C)nc(SC)n1 (centres undefined)", "Assigned Label": "no"}
{"Compound": "Nc1ccccc1-c1ccccc1", "Assigned Label": "no"}
{"Compound": "O=C(Cl)c1ccccc1F", "Assigned Label": "no"}
{"Compound": "C#CCO", "Assigned Label": "no"}
{"Compound": "CCCCON=O", "Assigned Label": "no"}
{"Compound": "CC(C)(C)c1ccc(OP(=O)(Oc2ccccc2)Oc2ccccc2)cc1", "Assigned Label": "no"}
{"Compound": "CCC[CH2][Sn]([CH2]CCC)([CH2]CCC)[CH2]CCC", "Assigned Label": "yes"}
{"Compound": "CCNS(=O)(=O)C(F)(F)C(F)(F)C(F)(F)C(F)(F)C(F)(F)C(F)(F)C(F)(F)C(F)(F)F", "Assigned Label": "no"}
{"Compound": "COP(=O)(OC)O/C(=C\\Cl)c1cc(Cl)c(Cl)cc1Cl", "Assigned Label": "no"}
{"Compound": "NC(=O)C(Cl)Cl", "Assigned Label": "no"}
{"Compound": "ClCBr", "Assigned Label": "no"}
{"Compound": "O=C(CCCCl)c1ccc(F)cc1", "Assigned Label": "no"}
{"Compound": "CC[N+]1(CC)CCC(OC(=O)C(O)(c2ccccc2)c2ccccc2)C1 (centres undefined)", "Assigned Label": "no"}
{"Compound": "CC(=O)[O-].CC(=O)[O-].O.O.[Zn+2]", "Assigned Label": "no"}
{"Compound": "CC1CCCC1", "Assigned Label": "no"}
{"Compound": "O=P(Cl)(Cl)Cl", "Assigned Label": "no"}
{"Compound": "Cc1cnc2c(C(=O)O)c(Cl)ccc2c1", "Assigned Label": "no"}
{"Compound": "[Cl][Hg][c]1ccccc1", "Assigned Label": "yes"}
{"Compound": "CC(O)C(=O)[O][Hg][c]1ccccc1 (centres undefined)", "Assigned Label": "yes"}
{"Compound": "CCC[CH2][Sn]([CH2]CCC)([CH2]CCC)[O][Sn]([CH2]CCC)([CH2]CCC)[CH2]CCC", "Assigned Label": "yes"}
{"Compound": "CN1C(=O)[C@@H](NC(=O)c2cc3ccccc3[nH]2)N=C(c2ccccc2)c2ccccc21", "Assigned Label": "no"}
{"Compound": "C=CC(=C)C", "Assigned Label": "no"}
{"Compound": "CC1(C)[C@H](/C=C2\\CCSC2=O)[C@@H]1C(=O)OCc1coc(Cc2ccccc2)c1", "Assigned Label": "no"}
{"Compound": "CC(=O)[O-].CC(=O)[O-].O.O.O.[Pb+2]", "Assigned Label": "no"}
{"Compound": "CC(=O)[O][Sn]([c]1ccccc1)([c]1ccccc1)[c]1ccccc1", "Assigned Label": "yes"}
{"Compound": "ClSC(Cl)(Cl)Cl", "Assigned Label": "no"}
{"Compound": "COC(=O)N(OC)c1ccccc1COc1ccn(-c2ccc(Cl)cc2)n1", "Assigned Label": "yes"}
{"Compound": "O=C(Nc1ccc(F)cc1F)c1cccnc1Oc1cccc(C(F)(F)F)c1", "Assigned Label": "no"}
{"Compound": "O=c1c2ccccc2c(=O)c2c1cc(Cl)c1[nH]c3c([nH]c12)c(Cl)cc1c(=O)c2ccccc2c(=O)c13", "Assigned Label": "no"}
{"Compound": "Clc1ccc(C(c2ccc(Cl)cc2)C(Cl)Cl)cc1", "Assigned Label": "no"}
{"Compound": "Oc1cccc(Cl)c1Cl", "Assigned Label": "no"}
{"Compound": "COC(=O)c1ccccc1S(=O)(=O)NC(=O)Nc1nc(C)nc(OC)n1", "Assigned Label": "no"}
{"Compound": "CCCCN(CCCC)C(=S)[S-].CCCCN(CCCC)C(=S)[S-].[Ni+2]", "Assigned Label": "no"}
{"Compound": "Cc1c([N+](=O)[O-])c(C)c([N+](=O)[O-])c(C(C)(C)C)c1[N+](=O)[O-]", "Assigned Label": "no"}
{"Compound": "CCC(C)Br (centres undefined)", "Assigned Label": "no"}
{"Compound": "O=[N+]([O-])c1ccc(CCl)cc1", "Assigned Label": "no"}
{"Compound": "Cc1ccc([N+](=O)[O-])[c]2c1[O][Hg]2", "Assigned Label": "yes"}
{"Compound": "COc1cnc(OC)n2nc(NS(=O)(=O)c3c(OCC(F)F)cccc3C(F)(F)F)nc12", "Assigned Label": "no"}
{"Compound": "O=C(N[C@H]1N=C(c2ccccc2F)c2cccc3c2N(CC3)C1=O)c1cc2ccccc2[nH]1", "Assigned Label": "no"}
{"Compound": "COP(=S)(OC)Oc1ccc([N+](=O)[O-])c(C)c1", "Assigned Label": "no"}
{"Compound": "O=Cc1ccccc1", "Assigned Label": "no"}
{"Compound": "[Cl-].[Cl-].[Sn+2]", "Assigned Label": "no"}
{"Compound": "CSC(=O)c1c(C(F)F)nc(C(F)(F)F)c(C(=O)SC)c1CC(C)C", "Assigned Label": "no"}
{"Compound": "CNC(=O)/C=C(\\C)OP(=O)(OC)OC", "Assigned Label": "no"}
{"Compound": "O.O.O.O.O.O.O=S(=O)([O-])[O-].[Ni+2]", "Assigned Label": "no"}
{"Compound": "ClC1(Cl)C2(Cl)C3(Cl)C4(Cl)C(Cl)(Cl)C5(Cl)C3(Cl)C1(Cl)C5(Cl)C24Cl (centres undefined)", "Assigned Label": "no"}

Cited source for all entries: PubChem BioAssay (Tox21)
